Kindly state IC50 for each of the entries shown.
Biological target: Human UII receptor, 6D9 human rhabdomyosarcoma cells (Homo sapiens, UniProt Q9UKP6)
Construct: 6D9: isolated by dilution subcloning of RMS13 cells, ATCC® Number: CRL-2061
Sequence (Q9UKP6 whole entry): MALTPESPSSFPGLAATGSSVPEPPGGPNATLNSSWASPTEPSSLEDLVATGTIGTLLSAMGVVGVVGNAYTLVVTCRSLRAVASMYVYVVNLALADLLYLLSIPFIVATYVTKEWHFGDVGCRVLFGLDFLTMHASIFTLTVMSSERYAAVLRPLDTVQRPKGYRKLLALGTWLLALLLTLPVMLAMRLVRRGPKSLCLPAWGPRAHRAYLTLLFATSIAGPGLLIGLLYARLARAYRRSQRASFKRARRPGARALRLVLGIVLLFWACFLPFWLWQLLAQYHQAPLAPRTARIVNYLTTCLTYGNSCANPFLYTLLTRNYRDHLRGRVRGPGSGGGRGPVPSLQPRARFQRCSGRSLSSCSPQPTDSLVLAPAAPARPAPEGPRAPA
Assay: Human UII Calcium Mobilization Assay
Details: average value, FLIPR TETRA, read-out: Human UII Ca^+ Mobilization Average IC50
Experimental: 6D9 human rhabdomyosarcoma cells were seeded into tissue culture treated 384-well black-walled clear bottom plates (3712, Corning Incorporated, Corning, N.Y.) at 8,000 cells/well in 25 μL of culture medium, and maintained in an incubator (5% CO2 at 37° C.) for 22 hrs prior to the calcium mobilization assay. […] The cell plates were incubated at 37° C. for 45 minutes and the fluorescence intensity was measured on a Fluorometric Imaging Plate Reader (FLIPR^TETRA, Molecular Devices, Sunnyvale, Calif.). […]
Response body: numeric value in nM, unit text excluded.

Request: Can you look up the measured IC50 of COc1ccc([C@@H](CCCNC2=CCCN2)N2C(=O)c3cccc(N4CCN([C@H](C)c5ccccc5)CC4)c3C2=O)cc1OC for me?
Response: 1100

Request: Can you look up the measured IC50 of COc1ccc([C@@H](CCCNS(=O)(=O)c2cccs2)N2C(=O)c3cccc(N4CCN(C5CCC5)CC4)c3C2=O)cc1OC for me?
Response: 640

Request: Can you look up the measured IC50 of COc1ccc([C@@H](CCCNC(=O)c2cc(C)on2)N2C(=O)c3cccc(N4CCN([C@H](C)c5ccccc5)CC4)c3C2=O)cc1OC for me?
Response: 750

Request: Can you look up the measured IC50 of CCN1CCN(c2cccc3c2C(=O)N([C@H](CCCOCc2c(F)cccc2F)c2ccc(OC)c(OC)c2)C3=O)CC1 for me?
Response: 2900

Request: Can you look up the measured IC50 of COc1ccc([C@@H](CCCNC(C)=N)N2C(=O)c3cccc(N4CCN([C@H](C)c5ccccc5)CC4)c3C2=O)cc1OC for me?
Response: 2600

Request: Can you look up the measured IC50 of CCOCC(=O)NCCC[C@H](c1ccc(OC)c(OC)c1)N1C(=O)c2cccc(N3CCN([C@H](C)c4ccccc4)CC3)c2C1=O for me?
Response: 580

Request: Can you look up the measured IC50 of CCOCCC(=O)NCCC[C@H](c1ccc(OC)c(OC)c1)N1C(=O)c2cccc(N3CCN([C@H](C)c4ccccc4)CC3)c2C1=O for me?
Response: 1100

Request: Can you look up the measured IC50 of CCN1CCN(c2cccc3c2C(=O)N([C@H](CCCOS(=O)(=O)N(C)C)c2ccc(OC)c(OC)c2)C3=O)CC1 for me?
Response: 3800

Request: Can you look up the measured IC50 of COc1ccc([C@@H](CCCNC(=O)C(C)(C)C)N2C(=O)c3cccc(N4CCN([C@H](C)c5ccccc5)CC4)c3C2=O)cc1OC for me?
Response: 1000

Request: Can you look up the measured IC50 of CCN1CCN(c2cccc3c2C(=O)N(C(c2cccc(NS(=O)(=O)O)c2)c2ccc(OC)c(OC)c2)C3=O)CC1 (centres unmarked) for me?
Response: 3400

Request: Can you look up the measured IC50 of COc1ccc([C@@H](CCCNC(=O)c2ccno2)N2C(=O)c3cccc(N4CCN([C@H](C)c5ccccc5)CC4)c3C2=O)cc1OC for me?
Response: 910

Request: Can you look up the measured IC50 of COc1ccc([C@@H](CCCNS(=O)(=O)c2sc(C)nc2C)N2C(=O)c3cccc(N4CCN([C@H](C)c5ccccc5)CC4)c3C2=O)cc1OC for me?
Response: 300
